# system under test: Sentrin-specific protease 7 (Homo sapiens) (UniProt Q9BQF6)
# protocol text: SENP7 protease inhibitors, primary screen, biochemical, luminescence, uHTS (AID 434973);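 also: plate controls were DMSO with enzyme for no effect and no enzyme buffer wells for full effect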
# test conditions: recombinant SENP7, Z-RLRGG-aminoluciferin luminescence, 40 min; at 5 µM; hits give high values
Among all 330,000 compounds or so, about 4,900 (1.5%) were called active. What follows is part of a selection rich in actives, with near analogues and random picks from the rest.
metric: inhibition (%)
Return type: number; implicit unit %.

Could you share which inhibition value was measured for COc1ccccc1NC(=O)c1ccc2nc(N3C(=O)CCC3=O)sc2c1 ?
-10.2

Can you handle CC(=O)N1CCN(S(=O)(=O)c2c(F)cc(F)c(Cl)c2F)CC1 next?
2.44

What would you report for Cc1cccc(C)c1Nc1nnc(SCC(=O)Nc2sccc2C#N)s1 ?
8.73

Try this molecule too: O=C(NCc1ccccn1)c1c(O)c2c([nH]c1=O)CCCC2
53.8

Another molecule to look at: CCc1nnc(NC(=O)c2c(O)c3c([nH]c2=O)CCCC3)s1
-5.71

How about COC(=O)C1=C(C)N(c2ccc(C)cc2)/C(=C/c2ccc(O)cc2)C1=O ?
8.14

Moving on to the next molecule: Cc1cccc(NC(=O)c2ccc3nsnc3c2)c1C
2.56

Next entry: Cc1ccc(S(=O)(=O)/N=S(\C)C(C)C)cc1 (stereo not drawn)
-7.18

Now the same for Cc1ccc(S(=O)(=O)NCC(=O)N(CC(=O)NC(C)(C)C)Cc2cccs2)cc1
0.604

Cool, now CC1Cc2ccccc2N1C1=CC(=O)CC(C)(C)C1 (stereo not drawn)
-3.44

Then Cc1ccn(C(CC(=O)c2ccc(Br)cc2)C(=O)O)n1 (stereo not drawn) ?
4.97

Now the molecule COc1ccccc1NC(=O)c1ccc(N2CC3CC(C2)c2cccc(=O)n2C3)c(NC(=O)c2cccnc2)c1 (stereo not drawn)
70.4

What do you get for COc1ccc(CNC(=O)COc2ccccc2C(=O)c2cnn(-c3ccccc3)c2)cc1OC ?
60.9

----------
Assignment: determine reported inhibition for the given compounds.
# system under test: Sentrin-specific protease 7 (Homo sapiens)
# protocol text: SENP7 protease inhibitors, primary screen, biochemical, luminescence, uHTS (AID 434973);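 also: plate controls were DMSO with enzyme for no effect and no enzyme buffer wells for full effect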
# test conditions: recombinant SENP7, Z-RLRGG-aminoluciferin luminescence, 40 min; at 5 µM; hits give high values
About 4,900 (1.5%) of roughly 330,000 compounds were called active. The list comes from a sample in which actives are over-represented; it also holds close analogues and randomly drawn compounds.
Give the value in % but do not write % after it.

Which value of inhibition has been reported for Brc1ccc2nc(N3CCCC3)sc2c1 in the records?
93.4

Next: Nc1ccc(N=Nc2ccccc2Cl)c(N)n1
82.3

// next record COC(=O)C1=C(C)NC(=O)/C1=C/c1ccc(CNS(=O)(=O)c2ccc(C)cc2)o1
-2.86

Similarly, CN(CCC(=O)Nc1cc(S(=O)(=O)N(C)C)ccc1Cl)CC(=O)Nc1ccc(F)cc1 ?
4.2

Also COc1cc2c(cc1OC)C(C)N(S(=O)(=O)c1cnc(Cl)c(Cl)c1)CC2 (stereo not given) , if possible.
7.13

Query CC(C)(C)SCCNC(=O)c1cccc([N+](=O)[O-])c1 next
0.866

Quick one: CCOC(=O)c1cnc2c(c(C)nn2CC)c1Cl
-8.37

Also check COc1cccc(-c2nnc(SCCOc3ccc4c(C)cc(=O)oc4c3)o2)c1
7.33

And what about the compound COc1ccc(/C(C)=N\NC(=O)c2ccc(-c3ccccc3)cc2)c(F)c1 ?
3.63

Now consider COc1ccc([N+](=O)[O-])cc1N(CC(O)CN(CC(C)C)CC(C)C)S(=O)(=O)c1ccc(C)cc1 (stereo not given) and answer again.
3.08

Record: CN1C(=O)c2cccc3c(N)ccc(c23)C1=O
-3.67

Same lookup for Cc1cc(C)n2nc(C(=O)Oc3ccc4c(c3)OCO4)nc2n1 , please.
4.97

Next up: Fc1ccc2nc(Nc3nc4c(s3)CCCC4)sc2c1
9.46

Now this one: O=[N+]([O-])c1ccc2oc(-c3cccc(O)c3)nc2c1
87.7

Queued: COC(=O)c1nn(-c2cccc(Cl)c2)ccc1=O
3.97

Another compound to look at: CCN1C(=O)c2cccc3c(S(=O)(=O)Nc4ccccc4O)ccc1c23
11.4

Another compound: CC(C)c1c(O)nc(SCCOc2ccc(Cl)cc2)[nH]c1=O
8.54

Also CCOc1ccc(NC(=O)N2CC=C(n3c(=O)[nH]c4ccccc43)CC2)cc1 ?
4

Now the same for Fc1ccc2nc(N3CCCCC3)sc2c1
85.3

Moving on to the next compound: COc1cc(NC(=O)CCS(=O)(=O)c2ccc3c(c2)oc(=O)n3C)cc(OC)c1
1.53

----------
# system under test: Sentrin-specific protease 7 (Homo sapiens) (UniProt Q9BQF6)
# protocol text: SENP7 protease inhibitors, primary screen, biochemical, luminescence, uHTS (AID 434973);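 also: plate controls were DMSO with enzyme for no effect and no enzyme buffer wells for full effect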
# test conditions: recombinant SENP7, Z-RLRGG-aminoluciferin luminescence, 40 min; at 5 µM
The whole screen tested about 330,000 compounds, of which about 4,900 (1.5%) were called active.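 The calls were made as follows: active = inhibition above about 50% at the single test dose (limit read from the data); inactive = the rest.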 This excerpt belongs to a sample that is enriched for actives.
Select the correct class. Options are active, inactive and nothing else.

Would you mind telling me which call this test gave Nc1nonc1-n1nnc(C(=O)N/N=C/c2ccc(Cl)cc2)c1-c1ccc2c(c1)OCO2 ?
inactive

Likewise for CC(=O)c1sc(N/N=C\c2ccc(C)cc2)nc1C ?
inactive

Similarly, Cc1cc(N=Nc2ccc3ccccc3c2)ccc1O ?
active

O=C(CCc1nc2sc3c(c2c(=O)[nH]1)CCCC3)NCC(=O)Nc1ccccc1Br , same question.
inactive

Param item: CCCn1c(CCNc2nc(-c3ccc(OC)cc3)cs2)nc2ccccc21
inactive

Let us now turn to Cc1ccc(-n2[nH]c(C)c(/C=N/NC(=O)c3cccc([N+](=O)[O-])c3)c2=O)cc1C
inactive

Another compound to check: COc1ccc(N2CC(C(=O)NCCN3C(=O)S/C(=C\c4cccnc4)C3=O)CC2=O)c(OC)c1 (configuration not stated)
inactive

Try this compound too: CCOC(=O)c1sc(NC(=O)c2sc(C)nc2C)nc1C
inactive

Then this compound: O=C(CN1C(=O)NC2(CCCCC2)C1=O)N1CCN(C(=O)c2cccs2)CC1
inactive

Repeat for the following compound: CN(C)c1ccc(/C=C/C(=O)c2ccc(O)cc2)cc1[N+](=O)[O-]
inactive

Note, next up: O=C(Nc1nc(-c2cccnc2)cs1)c1ccccc1F
inactive

Now the compound Cc1cccc(N(CC(=O)N=Nc2c(O)[nH]c3ccccc23)S(C)(=O)=O)c1C
inactive

Repeat with CC(C)NC(=O)c1ccc(Sc2ccccc2)c([N+](=O)[O-])c1
inactive

Try Cc1[nH]n(-c2ccccc2)c(=O)c1N=Nc1ccccc1C(=O)N1CCCCC1 next.
inactive

Cool, now Cc1cc(C(=O)NNC(=O)c2ccccc2O)c(C)o1
inactive

What do you have for Cc1ccnc(-n2sc3ccccc3c2=O)n1 ?
inactive

Continue with Cc1ccnc(Nc2nc3ccccc3s2)n1
active

Another compound to look at: O=C(NCCC1=CCCCC1)C1CCN(Cc2cnn(-c3ccccc3)c2-n2cccc2)CC1
inactive

Next entry: O=C(CN1CCOCC1)N1CCCc2c1c(=O)oc1ccc(OCc3ccccc3)cc21
inactive

Same question, CC1C(=O)N(Cc2ccccc2)c2ccccc2N1C(=O)c1ccccc1 (configuration not stated) this time
inactive

Repeat for the following compound: C/C(=N\NC(=O)c1ccoc1C)c1ccccc1O
active

Next record, please: O=C(OCc1ccc([N+](=O)[O-])cc1)C1CC(=O)N(Cc2ccccc2Cl)C1 (configuration not stated)
inactive

And the next one, COC(=O)c1sc(NC(=S)NC(=O)c2ccc(C)cc2)nc1C ?
inactive

Queued: O=C(NCc1cccnc1)C(=O)Nc1nc(-c2ccccc2)cs1
inactive

Record: O=C(CCN1CCCCC1)N=Nc1c(O)[nH]c2ccccc12
inactive

Param item: CCOC(=O)c1sc(NC(=O)c2ccncc2)nc1C
active

Then this compound: COc1ccc(-c2csc(Nc3ccccn3)n2)cc1
active

Reference source for all entries: PubChem BioAssay AID434973
